biological target: Cytochrome P450 2C19 (Homo sapiens, UniProt P33261)
Sequence (P33261 whole entry): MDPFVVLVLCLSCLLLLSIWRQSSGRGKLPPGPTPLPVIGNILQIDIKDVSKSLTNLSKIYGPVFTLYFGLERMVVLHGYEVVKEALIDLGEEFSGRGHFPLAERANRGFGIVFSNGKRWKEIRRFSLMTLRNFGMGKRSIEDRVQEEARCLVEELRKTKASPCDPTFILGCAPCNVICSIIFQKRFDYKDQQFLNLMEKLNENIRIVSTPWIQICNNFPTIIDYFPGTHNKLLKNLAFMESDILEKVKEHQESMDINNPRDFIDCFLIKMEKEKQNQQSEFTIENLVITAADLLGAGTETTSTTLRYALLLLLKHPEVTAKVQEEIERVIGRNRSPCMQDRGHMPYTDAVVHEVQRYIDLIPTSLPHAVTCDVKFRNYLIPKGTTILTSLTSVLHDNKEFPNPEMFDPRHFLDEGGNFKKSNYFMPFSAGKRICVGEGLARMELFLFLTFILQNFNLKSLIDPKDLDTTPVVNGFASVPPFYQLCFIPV
pIC50: −log10 of the molar value.
property_label: pIC50

COc1ccc(OCc2nn3c(-c4ccc(Br)cc4)nnc3s2)cc1
6.25
